Data credit: ChEMBL document CHEMBL1126570

# run-description: Half-life was determined in 0.9%sodium chloride at 5.2 pH at room temperature
# Assay type: ADME
# test-conditions: 0.9% sodium chloride solution, pH 5.2
The following molecules are listed with their measured half-life values.
Supply the numeric figure in h, leaving out any unit text.

Here are 2 molecules together with their reported answers.
chem-smiles | half-life, h
OCN(CC(F)(F)F)c1nc(N(CO)CC(F)(F)F)nc(N(CO)CC(F)(F)F)n1 | 95
CN(CO)c1nc(N(C)CO)nc(N(C)CO)n1 | 4.58

Now examine the next entry.
## Task half-life for N#CCN(CO)c1nc(N(CO)CC#N)nc(N(CO)CC#N)n1 ?
## Result 135
